Exercise: for every item that follows, state its recorded TGI.
- Test system: XF 498 CNS
- TEST_PROTOCOL: NCI tumour cell line growth inhibition, 48 h

Quick note, TGI for COc1c(O)c2c3c(c(C)cc(O)c3c1O)C(=O)C(O)(C(C)(C)C(C)=O)C2=O (centres undefined) landed at > 100 µM

Quick note, TGI for CCNC(=O)/C(=C/c1ccc(OC)cc1)c1cc(OC)c(OC)c(OC)c1 landed at 85.3 µM

Quick note, TGI for CCN1CCCC(NCc2c3ccccc3c(CNC3CCCN(CC)C3)c3ccccc23)C1 (centres undefined) landed at > 52.1 µM

Quick note, TGI for Cc1ccccc1C1=[N+]([O-])c2ccc(Cl)cc2C1=O landed at 14.3 µM

Quick note, TGI for COc1cccc(/C=N/[N-]C(=O)c2ccncc2)c1[O-].COc1cccc(/C=N/[N-]C(=O)c2ccncc2)c1[O-].[O]=[U](=[O])([OH2+])[OH2+] landed at 37.6 µM

Quick note, TGI for CCOC(=O)NC(=O)c1cn(C2CCCCC2)c(=O)[nH]c1=O landed at > 100 µM

Quick note, TGI for CC1=C(C#N)C(=O)CC(c2ccc(Cl)cc2)N(C)N1 (centres undefined) landed at > 100 µM

Quick note, TGI for CC1=NN(C(=O)CC(=O)Nc2ccccc2F)C(=O)C1N=Nc1ccccc1[N+](=O)[O-] (centres undefined) landed at > 100 µM

Quick note, TGI for COC(=O)/C(=N/O)C(C(=O)C=C(C)C)C(=O)C(=O)Nc1nc2ccc([N+](=O)[O-])cc2s1 (centres undefined) landed at > 100 µM

---

- System: DU-145 prostate
- TEST_PROTOCOL: NCI tumour cell line growth inhibition, 48 h
Exercise: for every item that follows, state its recorded TGI.

Quick note, TGI for CN(C)CCNCCN landed at > 100 µM

Quick note, TGI for Cc1ccc(OCCOCCOCCOCCOc2ccc(C)n(O)c2=S)c(=S)n1O landed at > 100 µM

Quick note, TGI for COC(=O)c1cc2c(o1)-c1nccc3c1c(nc1ccccc13)C2=O landed at 22.9 µM

Quick note, TGI for CC1(C)C2CC(=O)C1(C)C(O)C2Br (stereo unspecified) landed at > 100 µM

Quick note, TGI for Nc1ccccc1O.O.O=C(O)C1[O][Sb][O]C1C(=O)O (stereo unspecified) landed at 27.8 µM

Quick note, TGI for CCOC(=O)c1c(-c2ccccc2)c(-c2ccccc2)cn1C landed at > 10 µM

Quick note, TGI for CC1=C2C(=C[C@H]3[C@]4(C)CCCC(C)(C)[C@H]4CC[C@]34O[C@H]24)OC1=O landed at > 100 µM

Quick note, TGI for O=c1[nH]cnc2c1ncn2[C@@H]1C[C@@H]1CO landed at > 100 µM

Quick note, TGI for O=C1CC(C(O)(C(F)(F)F)C(F)(F)Cl)CCC1C(O)(C(F)(F)F)C(F)(F)Cl (stereo unspecified) landed at > 10 µM

Quick note, TGI for CCC(C)(O)c1cnc(CC(C)C)c(=O)n1O (stereo unspecified) landed at > 100 µM

Quick note, TGI for O=C(/C=C/c1ccccc1)c1ccccc1 landed at > 10 µM

Quick note, TGI for COc1ccc(/C=C2\C[C@H]3[C@@H]4CCC5=C/C(=N/O)CC[C@]5(C)[C@H]4CC[C@]3(C)\C2=N\O)cc1OC landed at > 100 µM

Quick note, TGI for CC(C)(C)[Si](C)(C)OC1[C@@H](CNC(=O)NC(=O)CCl)O[C@@H](n2cnc3c(N)ncnc32)[C@H]1O[Si](C)(C)C(C)(C)C (stereo partly specified) landed at 5.26 µM

Quick note, TGI for Nc1nc(Cl)cc(NCC2(CO)CCC(CCc3ccccc3)C2)n1 (stereo unspecified) landed at 30.2 µM

Quick note, TGI for c1csc(-c2ccc(-c3cccs3)c3nsnc23)c1 landed at > 70.6 µM

Quick note, TGI for O=C(/C(=C\c1c(-c2ccccc2)[nH]c2ccccc12)S(=O)(=O)c1ccccc1)c1ccccc1 landed at > 100 µM

Quick note, TGI for O=C(Nc1cc(Nc2ncccc2-c2ncnc3nc[nH]c23)ccc1F)c1cc(C(F)(F)F)cc(C(F)(F)F)c1 landed at > 10 µM

Quick note, TGI for CC(=O)Oc1cc(C(F)(F)F)ccc1C(=O)OC1(C)OC(=O)c2ccc(C(F)(F)F)cc2O1 (stereo unspecified) landed at > 100 µM

Quick note, TGI for CCCc1cc(=O)n2c(C(=O)Nc3ccc(Cl)cc3C)c(C(=O)Nc3ccc(F)cc3)sc2n1 landed at 33.3 µM

Quick note, TGI for CCC1=NC(C(F)(F)F)(C(F)(F)F)N=C(N2CCOCC2)O1 landed at > 100 µM

Quick note, TGI for Cc1ccc(CC[P+](=O)CCc2ccc(C)nc2)cn1 landed at > 100 µM
